system: human H1 (Homo sapiens, UniProt P35367)
Construct: host or cells: CHO-K1, also expressing mitochondrion-targeted aequorin
Sequence (P35367 whole entry): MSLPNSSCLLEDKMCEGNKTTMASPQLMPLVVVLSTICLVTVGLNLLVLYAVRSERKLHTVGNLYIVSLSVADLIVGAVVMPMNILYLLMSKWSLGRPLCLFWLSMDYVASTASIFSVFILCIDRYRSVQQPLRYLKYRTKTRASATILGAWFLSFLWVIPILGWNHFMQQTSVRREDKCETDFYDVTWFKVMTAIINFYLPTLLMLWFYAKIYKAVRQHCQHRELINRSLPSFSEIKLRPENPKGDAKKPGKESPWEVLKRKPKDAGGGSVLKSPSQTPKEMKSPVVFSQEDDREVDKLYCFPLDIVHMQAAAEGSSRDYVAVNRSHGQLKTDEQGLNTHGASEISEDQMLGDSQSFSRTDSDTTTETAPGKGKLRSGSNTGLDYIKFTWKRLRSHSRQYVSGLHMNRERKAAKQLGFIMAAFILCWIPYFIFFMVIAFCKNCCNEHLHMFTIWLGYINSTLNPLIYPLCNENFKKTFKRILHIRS
assay: In vitro histamine H1 receptor cell-based aequorin bioluminescence antagonist assay
reported-conditions: CHO-K1 cells expressing human H1 and aequorin; histamine at EC80; read-out: H1 Antagonist EC50
property-label: EC50

The following molecules have reported results that may help.
molecule	EC50
CCC1CCC(Nc2ncnc3scc(C)c23)CC1 (centres unmarked)	> 10 µM
Cc1csc2ncnc(NC(C)Cc3ccncc3)c12 (centres unmarked)	> 10 µM
Cc1csc2ncnc(C(=O)NCc3ccc(Cl)cc3)c12	> 10 µM
COc1ccc(CNc2ncnc3scc(C)c23)cc1	> 10 µM
CCCCNc1ncnc2scc(-c3ccccc3)c12	> 10 µM
C=CCN(c1ncnc2scc(C)c12)C1CCCCC1	> 10 µM
Cc1csc2ncnc(NCc3ccc(F)cc3F)c12	> 10 µM
Cc1csc2ncnc(OCCc3ccc(Cl)cc3)c12	> 10 µM

Lookup: Read off the recorded EC50 for Cc1csc2ncnc(NCCc3ccc(Cl)cc3)c12
Found: > 10 µM

Lookup: Read off the recorded EC50 for Cc1csc2ncnc(NC3CONC3=O)c12 (centres unmarked)
Found: > 10 µM

Lookup: Read off the recorded EC50 for Cc1csc2ncnc(NCCc3ccc4c(c3)OCO4)c12
Found: > 10 µM

Lookup: Read off the recorded EC50 for Cc1csc2ncnc(N3C(C)CCCC3C)c12 (centres unmarked)
Found: > 10 µM

Lookup: Read off the recorded EC50 for Cc1csc2ncnc(N3CCN(c4ccccc4F)CC3)c12
Found: > 10 µM

Lookup: Read off the recorded EC50 for CCC(CO)Nc1ncnc2scc(C)c12 (centres unmarked) [Example 73]
Found: > 10 µM

Lookup: Read off the recorded EC50 for COc1ccc(N2CCN(c3ncnc4scc(C)c34)CC2)cc1OC
Found: > 10 µM

Lookup: Read off the recorded EC50 for Cc1csc2ncnc(C(=O)CCc3ccc(Cl)cc3)c12
Found: > 10 µM

Lookup: Read off the recorded EC50 for Cc1csc2ncnc(NCC3CCCO3)c12 (centres unmarked)
Found: > 10 µM

Lookup: Read off the recorded EC50 for Cc1csc2ncnc(NCCCCO)c12
Found: > 10 µM

Lookup: Read off the recorded EC50 for CCC(CO)Nc1ncnc2scc(C)c12 (centres unmarked) [Example 72]
Found: > 10 µM

Lookup: Read off the recorded EC50 for Cc1csc2ncnc(N3CCCC(C(N)=O)C3)c12 (centres unmarked)
Found: > 10 µM

Lookup: Read off the recorded EC50 for CCCN(CCC)c1ncnc2scc(C)c12
Found: > 10 µM

Lookup: Read off the recorded EC50 for c1ccc(CCNc2ncnc3sccc23)cc1
Found: > 10 µM

Lookup: Read off the recorded EC50 for Cc1csc2ncnc(NCC3CCc4cc(Cl)ccc43)c12 (centres unmarked)
Found: > 10 µM

Lookup: Read off the recorded EC50 for CCCN(C)c1ncnc2scc(C)c12
Found: > 10 µM

Lookup: Read off the recorded EC50 for COc1ccc(CCNc2ncnc3sccc23)cc1
Found: > 10 µM

Lookup: Read off the recorded EC50 for Cc1csc2ncnc(N3CCCC3CO)c12 (centres unmarked)
Found: > 10 µM

Lookup: Read off the recorded EC50 for Cc1csc2ncnc(N3CCN(c4ccc(C(C)(C)C)cc4)CC3)c12
Found: > 10 µM

Lookup: Read off the recorded EC50 for Cc1csc2ncnc(NC(C)C(C)C)c12 (centres unmarked)
Found: > 10 µM

###

system: human H1 (Homo sapiens, UniProt P35367)
Construct: host or cells: CHO-K1, also expressing mitochondrion-targeted aequorin
assay: In vitro histamine H1 receptor cell-based aequorin bioluminescence antagonist assay
reported-conditions: CHO-K1 cells expressing human H1 and aequorin; histamine at EC80; read-out: H1 Antagonist EC50
pEC50: −log10 of the molar value.
property-label: pEC50

The following compounds have reported results that may help.
smiles-structure	system	pEC50
Cc1csc2ncnc(N3CCN(c4cccc(Cl)c4)CC3)c12	human H1 (Homo sapiens, UniProt P35367)	< 5.00
Cc1csc2ncnc(NCCCN3CCOCC3)c12	human H1 (Homo sapiens, UniProt P35367)	< 5.00
Cc1sc2ncnc(N3CCN(S(=O)(=O)c4ccc(C(C)(C)C)cc4)CC3)c2c1C	human H1 (Homo sapiens, UniProt P35367)	< 5.00

Lookup: Read off the recorded pEC50 for Cc1csc2ncnc(N3CCN(c4ccc(Cl)cc4)CC3)c12
Found: < 5.00

Lookup: Read off the recorded pEC50 for Cc1csc2ncnc(NCCC(C)(C)C)c12
Found: < 5.00
